Test system: Yap1 mRNA
Test: Dose-dependent inhibition of human Yap1 in A-431 cells (Example 7, 10,000 cells per well, RTS36584)
Type: cell-based
Conditions: 15.6 nM, A-431 cells, 10,000 cells per well, free uptake, approximately 48 hours
Strand notation (5' to 3'): a small letter for the sugar, then the base; units joined by * are phosphorothioate-linked, units joined directly phosphodiester-linked; [ ] holds rarer units or linkages, { } end groups; capitals alone tell only the bases. k = constrained ethyl (cEt); [5mC] = 5-methylcytosine; d = 2'-deoxy (DNA)
Some substances, each annotated with its measured Yap1 mRNA, % UTC.
Use % UTC as the unit, but write only the number.

Some substances with recorded Yap1 mRNA, % UTC:
INSERT INTO assay_data (substance, experimental_system, observed_result) VALUES
  ('958485 (kA*kG*kA*dG*dG*dT*d[5mC]*dA*dG*d[5mC]*dA*dA*dT*kA*k[5mC]*kA; antisense) [compound 958485]', 'Yap1 mRNA', 68),
  ('958595 (k[5mC]*k[5mC]*kA*d[5mC]*dA*dT*d[5mC]*dA*dA*dG*dG*d[5mC]*dT*kA*kT*kG; antisense) [compound 958595]', 'Yap1 mRNA', 83),
  ('958500 (kT*k[5mC]*kT*dA*dT*dA*dT*dT*dA*dG*dA*dG*dT*kA*kT*kG) [compound 958500]', 'Yap1 mRNA', 91);

Ask: Requested field: Yap1 mRNA, % UTC. Item: 958490 (kG*kT*kG*dA*d[5mC]*dA*dT*dG*dA*dA*dG*d[5mC]*dA*kT*k[5mC]*kT; antisense) [compound 958490]
Result: 81
